# Target or test system: human cathepsin L (Homo sapiens, UniProt P07711)
# Sequence (P07711 114-288 limits assumed): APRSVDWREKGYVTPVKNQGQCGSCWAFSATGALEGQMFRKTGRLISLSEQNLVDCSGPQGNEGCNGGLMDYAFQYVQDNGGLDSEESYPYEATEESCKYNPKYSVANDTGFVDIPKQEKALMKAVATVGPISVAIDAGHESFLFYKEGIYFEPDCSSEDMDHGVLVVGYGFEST
# Sequence (P07711 292-333 limits assumed): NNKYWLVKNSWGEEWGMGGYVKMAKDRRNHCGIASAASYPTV
# Assay remarks: Preincubation studies, cathepsin L
# Assay type: biochemical
# Set-up: 8.7 ng/mL human liver cathepsin L (Calbiochem 219402); purchased Calbiochem 219402; host or cells: human liver
# Run parameters: IC50 against human cathepsin L after 2 hours preincubation, preincubation with enzyme 2 h
Assay readout: pIC50
Note: pIC50 values are expressed as the negative base-10 logarithm of concentration in M.

Query: pIC50; subject: CCc1ccccc1NC(=O)CSC(=O)NNC(=O)[C@H](Cc1c[nH]c2ccccc12)NC(=O)OC(C)(C)C
8.38

====

# Target or test system: Human liver cathepsin B (Homo sapiens)
# Construct: Human liver cathepsin B (Calbiochem 219362, 65 ng/mL); purchased Calbiochem 219362; host or cells: human liver
# Assay remarks: Cathepsin B assay, IC50 determination
# Format: biochemical
# Run parameters: Table 1; read-out: IC50 Cat B
Collected IC50 values appear next to each entry.
Please respond with the number in µM and leave the unit unwritten.

Record lookup: for Human liver cathepsin B (Homo sapiens), what IC50 belongs to CC(C)(C)OC(=O)N[C@@H](Cc1ccc(OCc2ccccc2)cc1)C(=O)NNC(=O)SCC(=O)N1CCc2ccccc21 ?
3.12

// fetch Human liver cathepsin B (Homo sapiens) IC50 for CC(C)(C)OC(=O)N[C@@H](CCCCNC(=O)OCc1ccccc1)C(=O)NNC(=O)SCC(=O)N1CCCc2ccccc21
4.35

Enter reported IC50 observed with Human liver cathepsin B (Homo sapiens) for CC(C)[C@H](NC(=O)OC(C)(C)C)C(=O)NNC(=O)SCC(=O)N1CCCc2ccccc21
0.63

====

# Target or test system: Human spleen cathepsin S (Homo sapiens, UniProt P25774)
# Construct: Human spleen cathepsin S (Calbiochem 219344, 40 ng/mL); purchased Calbiochem 219344; host or cells: human spleen
# Sequence (P25774 115-331): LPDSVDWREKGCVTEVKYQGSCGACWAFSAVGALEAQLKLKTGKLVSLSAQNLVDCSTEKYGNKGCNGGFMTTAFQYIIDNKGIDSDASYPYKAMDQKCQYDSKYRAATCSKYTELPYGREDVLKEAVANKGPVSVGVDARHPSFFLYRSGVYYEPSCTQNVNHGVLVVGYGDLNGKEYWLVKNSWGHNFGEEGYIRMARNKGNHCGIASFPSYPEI
# Assay remarks: Cathepsin S assay, IC50 determination
# Type: biochemical
# Run parameters: Table 1; read-out: IC50 Cat S
pIC50: −log10 of the molar value.
# reported pIC50; entries follow

Molecule smiles: CCc1ccccc1NC(=O)CSC(=O)NNC(=O)[C@@H](NC(=O)OC(C)(C)C)C(C)C
pIC50: 5.43

Molecule smiles: CCc1ccccc1NC(=O)CSC(=O)NNC(=O)C[C@H](C)NC(=O)OC(C)(C)C
pIC50: < 4.60

Molecule smiles: CC(C)(C)OC(=O)N[C@@H](Cc1ncc[nH]1)C(=O)NNC(=O)SCC(=O)N1CCCc2ccccc21
pIC50: < 4.60

Note: attention shifts to another entry.
// pIC50 lookup, key: CCc1ccccc1NC(=O)CSC(=O)NNC(=O)[C@H](C)NC(=O)OC(C)(C)C
< 4.60

====

Catalogue of pIC50 readings, one per entry.
# Target or test system: human liver cathepsin L (Homo sapiens)
# Construct: 8.7 ng/mL human liver cathepsin L (Calbiochem 219402); purchased Calbiochem 219402; host or cells: human liver
# Sequence (P07711 114-288 limits assumed): as the sequence (P07711 114-288 limits assumed) above
# Sequence (P07711 292-333 limits assumed): as the sequence (P07711 292-333 limits assumed) above
# Assay remarks: Cathepsin L assay, IC50 determination
# Type: biochemical
# Run parameters: Table 1; read-out: IC50 Cat L
pIC50: −log10 of the molar value.

// known answers, use as guide
Compound: CC(OCc1ccccc1)[C@H](NC(=O)OC(C)(C)C)C(=O)NNC(=O)SCC(=O)N1CCCc2ccccc21 (stereo partly shown)
Assay readout: pIC50
Endpoint result: < 4.60
--
Compound: C[C@H](NC(=O)OC(C)(C)C)C(=O)NNC(=O)SCC(=O)N1CCCc2ccccc21
Assay readout: pIC50
Endpoint result: ≤ 4.60
--
Compound: CC(C)(C)OC(=O)N[C@@H](Cc1ncc[nH]1)C(=O)NNC(=O)SCC(=O)N1CCCc2ccccc21
Assay readout: pIC50
Endpoint result: < 4.60

Query compound follows.
What value of pIC50 has been reported for the following compound? CCc1ccccc1NC(=O)CSC(=O)NNC(=O)[C@@H](C)CO[Si](C)(C)C(C)(C)C
< 4.60
